- System: DU-145
- EXPERIMENT_DESCRIPTION: Cytotoxicity against human DU145 cells after 72 hrs by XTT assay
- Type: functional, cell-based
- CONDITION_INFO: DU-145, 24 h, in the assay text read “after 24 hrs” for “after 72 hrs”
pEC50: −log10 of the molar value.
ENDPOINT_NAME: pEC50

pEC50 lookup needed for CCCCCCCCCCCCCCCCCCCCCCCC/C=C(/C(=O)OC)[C@@H](O)C(C)=O [SECOTENUIFOLIDE A] , thanks.
> 5.15

----------
- System: LNCaP
- EXPERIMENT_DESCRIPTION: Cytotoxicity against human LNCAP cells after 72 hrs by XTT assay
- Format: functional, cell-based
- CONDITION_INFO: 24 h, in the assay text read “after 24 hrs” for “after 72 hrs”
Assign pIC50 to each entry below.
Numbers only, as −log10 of the molar value.

Please review the following examples before continuing.
C=C1OC(=O)/C(=C/CCCCCCCCCCCCCCCCCCCCCCCCCC)[C@@H]1O [ISOTENUIFOLIDE]	4.37
C=C1C=C(C(CCCCCCCCCCCCCCCCCCC)OC)C(=O)O1 (stereo not drawn) [TENUIFOLIDE B]	4.65
CC(C)C1=CC(=O)[C@]2(C)O[C@@]1(O)[C@@H]1[C@H](C)CC[C@@H]12	4.17

Kindly give each listed record's pIC50.
1. CCCCCCCCCCCCCCCCCCCCCCCC/C=C(/C(=O)OC)[C@@H](O)C(C)=O [SECOTENUIFOLIDE A]
2. COc1ccc2c(c1)CC=C(CO)c1cc3c(cc1-2)OCO3

1. 5.17
2. 3.65

Kindly give each listed record's pIC50.
1. C=C1OC(=O)/C(=C\CCCCCCCCCCCCCCCCCCCCCCCCCC)[C@@H]1O [TENUIFOLIDE A]
2. C=C1OC(=O)/C(=C\CCCCCCCCCCCCC)[C@@H]1O
3. CC(=O)O[C@H]1C(=O)[C@@]2(C)[C@H]([C@H](OC(=O)c3ccccc3)[C@]3(O)C[C@H](OC(=O)[C@H](O)[C@@H](NC(=O)c4ccccc4)c4ccccc4)C(C)=C1C3(C)C)[C@]1(OC(C)=O)CO[C@@H]1C[C@@H]2O

1. 3.35
2. 4.44
3. 5.20

----------
- Test system: DU-145
- EXPERIMENT_DESCRIPTION: Cytotoxicity against human DU145 cells after 72 hrs by XTT assay
- Type: functional, cell-based
- CONDITION_INFO: DU-145, 24 h, in the assay text read “after 24 hrs” for “after 72 hrs”
ENDPOINT_NAME: pIC50
One number for each entry, as −log10 of the molar value.

Please review the following examples before continuing.
C=C1OC(=O)/C(=C/CCCCCCCCCCCCCCCCCCCCCCCCCC)[C@@H]1O [ISOTENUIFOLIDE]	4.08
CCCCCCCCCCCCCCCCCCCCCCCC/C=C(/C(=O)OC)[C@@H](O)C(C)=O [SECOTENUIFOLIDE A]	5.28
C=C1C=C(C(CCCCCCCCCCCCCCCCCCC)OC)C(=O)O1 (configuration not stated) [TENUIFOLIDE B]	3.61

Kindly give each listed record's pIC50.
1. CC(C)C1=CC(=O)[C@]2(C)O[C@@]1(O)[C@@H]1[C@H](C)CC[C@@H]12
2. C=C1OC(=O)/C(=C\CCCCCCCCCCCCC)[C@@H]1O
3. C=C1OC(=O)/C(=C\CCCCCCCCCCCCCCCCCCCCCCCCCC)[C@@H]1O [TENUIFOLIDE A]

1. 3.57
2. 4.16
3. 3.68
